The reported measurements were obtained from ChEMBL document CHEMBL1148762.

# Tested on: RPMI-8226
# assay_overview: Cytotoxicity against human RPMI8226 cells
# Type: functional
Can you tell me GI50 for the items I'm about to list?
Give the value, in units of nM, as a plain number.

Name the recorded GI50 of the molecule listed here: `C/C=C1\NC(=O)[C@H](Cc2ccccc2)NC(=O)[C@@H](C(C)C)NC(=O)[C@@H]([C@@H](C)CC)NC(=O)[C@H](NC(=O)[C@H](NC(=O)[C@H](CCCNCc2cccs2)NC(=O)[C@H]2CCCN2C(=O)[C@H](NC(=O)[C@@H](NC(=O)[C@@H](NC(=O)[C@H](NC(=O)CCCC(C)C)C(C)C)[C@@H](C)O)C(C)C)C(C)C)[C@@H](C)CC)[C@@H](C)OC(=O)[C@H](C(C)C)NC1=O`
1270

Given `C/C=C1\NC(=O)[C@H](Cc2ccccc2)NC(=O)[C@@H](C(C)C)NC(=O)[C@@H]([C@@H](C)CC)NC(=O)[C@H](NC(=O)[C@H](NC(=O)[C@H](CCCNCc2ccncc2)NC(=O)[C@H]2CCCN2C(=O)[C@H](NC(=O)[C@@H](NC(=O)[C@@H](NC(=O)[C@H](NC(=O)CCCC(C)C)C(C)C)[C@@H](C)O)C(C)C)C(C)C)[C@@H](C)CC)[C@@H](C)OC(=O)[C@H](C(C)C)NC1=O` , respond with its GI50.
638

Give reported GI50 value for `C/C=C1\NC(=O)[C@H](Cc2ccccc2)NC(=O)[C@@H](C(C)C)NC(=O)[C@@H]([C@@H](C)CC)NC(=O)[C@H](NC(=O)[C@H](NC(=O)[C@H](CCCNC(=O)c2cc3ccc(N(CC)CC)cc3oc2=O)NC(=O)[C@H]2CCCN2C(=O)[C@H](NC(=O)[C@@H](NC(=O)[C@@H](NC(=O)[C@H](NC(=O)CCCC(C)C)C(C)C)[C@@H](C)O)C(C)C)C(C)C)[C@@H](C)CC)[C@@H](C)OC(=O)[C@H](C(C)C)NC1=O`
40100

---

# Test system: Aspergillus fumigatus
# assay_overview: Antimicrobial activity against Aspergillus fumigatus ATCC 90906
# Assay type: functional, organism-based
Please respond with reported MFC for every item in the list.
API: value field is a number in µM; no unit string.

Return the recorded MFC value; entry: `C/C=C1\NC(=O)[C@H](Cc2ccccc2)NC(=O)[C@@H](C(C)C)NC(=O)[C@@H]([C@@H](C)CC)NC(=O)[C@H](NC(=O)[C@H](NC(=O)[C@H](CCCN)NC(=O)[C@H]2CCCN2C(=O)[C@@H](NC(=O)[C@H](NC(=O)[C@H](NC(=O)[C@@H](NC(=O)CCCC(C)C)C(C)C)[C@H](C)OC(C)=O)C(C)C)C(C)C)[C@@H](C)CC)[C@@H](C)OC(=O)[C@H](C(C)C)NC1=O`
10

Quote MFC reported for `C/C=C1\NC(=O)[C@H](Cc2ccccc2)NC(=O)[C@@H](C(C)C)NC(=O)[C@@H]([C@@H](C)CC)NC(=O)[C@H](NC(=O)[C@H](NC(=O)[C@H](CCCNCc2ccncc2)NC(=O)[C@H]2CCCN2C(=O)[C@H](NC(=O)[C@@H](NC(=O)[C@@H](NC(=O)[C@H](NC(=O)CCCC(C)C)C(C)C)[C@@H](C)O)C(C)C)C(C)C)[C@@H](C)CC)[C@@H](C)OC(=O)[C@H](C(C)C)NC1=O` please.
20

Please look at this molecule and report its MFC: C/C=C1\NC(=O)[C@H](Cc2ccccc2)NC(=O)[C@@H](C(C)C)NC(=O)[C@@H]([C@H](C)CC)NC(=O)[C@H](NC(=O)[C@H](NC(=O)[C@H](CCCN)NC(=O)[C@H]2CCCN2C(=O)[C@H](NC(=O)[C@@H](NC(=O)[C@@H](NC(=O)[C@H](NC(=O)CCCC(C)C)C(C)C)[C@@H](C)O)C(C)C)C(C)C)[C@H](C)CC)[C@H](C)OC(=O)[C@H](C(C)C)NC1=O [KAHALALIDE F]
20

Annotate the molecule `C[C@@H]1[C@H](O)[C@@H](C)/C=C/C=C/C=C/C=C/C=C/C=C/C=C/[C@H](O[C@@H]2O[C@H](C)[C@@H](O)[C@H](N)[C@@H]2O)C[C@@H]2O[C@](O)(C[C@@H](O)C[C@@H](O)[C@H](O)CC[C@@H](O)C[C@@H](O)CC(=O)O[C@H]1C)C[C@H](O)[C@H]2C(=O)O` with its measured MFC.
2.5

Specify MFC for `C/C=C1\NC(=O)[C@H](Cc2ccccc2)NC(=O)[C@@H](C(C)C)NC(=O)[C@@H]([C@@H](C)CC)NC(=O)[C@H](NC(=O)[C@H](NC(=O)[C@H](CCCNCc2cccs2)NC(=O)[C@H]2CCCN2C(=O)[C@H](NC(=O)[C@@H](NC(=O)[C@@H](NC(=O)[C@H](NC(=O)CCCC(C)C)C(C)C)[C@@H](C)O)C(C)C)C(C)C)[C@@H](C)CC)[C@@H](C)OC(=O)[C@H](C(C)C)NC1=O` and stop.
20

Supply recorded MFC for `C/C=C1\NC(=O)[C@H](Cc2ccccc2)NC(=O)[C@@H](C(C)C)NC(=O)[C@@H]([C@@H](C)CC)NC(=O)[C@H](NC(=O)[C@H](NC(=O)[C@H](CCCNCCCCCC)NC(=O)[C@H]2CCCN2C(=O)[C@H](NC(=O)[C@@H](NC(=O)[C@@H](NC(=O)[C@H](NC(=O)CCCC(C)C)C(C)C)[C@@H](C)O)C(C)C)C(C)C)[C@@H](C)CC)[C@@H](C)OC(=O)[C@H](C(C)C)NC1=O` here.
20

---

# Tested on: Fusarium oxysporum
# assay_overview: Antimicrobial activity against Fusarium oxysporum at 30 uM after 48 hrs by microtiter assay
# Type: functional
property_name: inhibition at 30 µM (%)
# number only, unit % dropped from output

Check the records and state inhibition at 30 µM for `C/C=C1\NC(=O)[C@H](Cc2ccccc2)NC(=O)[C@@H](C(C)C)NC(=O)[C@@H]([C@@H](C)CC)NC(=O)[C@H](NC(=O)[C@H](NC(=O)[C@H](CCCNCc2ccncc2)NC(=O)[C@H]2CCCN2C(=O)[C@H](NC(=O)[C@@H](NC(=O)[C@@H](NC(=O)[C@H](NC(=O)CCCC(C)C)C(C)C)[C@@H](C)O)C(C)C)C(C)C)[C@@H](C)CC)[C@@H](C)OC(=O)[C@H](C(C)C)NC1=O`
98.2

Specify inhibition at 30 µM for `C/C=C1\NC(=O)[C@H](Cc2ccccc2)NC(=O)[C@@H](C(C)C)NC(=O)[C@@H]([C@@H](C)CC)NC(=O)[C@H](NC(=O)[C@H](NC(=O)[C@H](CCCN)NC(=O)[C@H]2CCCN2C(=O)[C@H](NC(=O)[C@@H](NC(=O)[C@@H](NC(=O)[C@H](NC(=O)CCCC(C)C)C(C)C)C(C)=O)C(C)C)C(C)C)[C@@H](C)CC)[C@@H](C)OC(=O)[C@H](C(C)C)NC1=O` and stop.
91.9

Provide one value: measured inhibition at 30 µM of `C/C=C1\NC(=O)[C@H](Cc2ccccc2)NC(=O)[C@@H](C(C)C)NC(=O)[C@@H]([C@@H](C)CC)NC(=O)[C@H](NC(=O)[C@H](NC(=O)[C@H](CCCNCc2ccc(F)cc2)NC(=O)[C@H]2CCCN2C(=O)[C@H](NC(=O)[C@@H](NC(=O)[C@@H](NC(=O)[C@H](NC(=O)CCCC(C)C)C(C)C)[C@@H](C)O)C(C)C)C(C)C)[C@@H](C)CC)[C@@H](C)OC(=O)[C@H](C(C)C)NC1=O`
96.6

Retrieve inhibition at 30 µM measured for C/C=C1\NC(=O)[C@H](Cc2ccccc2)NC(=O)[C@@H](C(C)C)NC(=O)[C@@H]([C@H](C)CC)NC(=O)[C@H](NC(=O)[C@H](NC(=O)[C@H](CCCN)NC(=O)[C@H]2CCCN2C(=O)[C@H](NC(=O)[C@@H](NC(=O)[C@@H](NC(=O)[C@H](NC(=O)CCCC(C)C)C(C)C)[C@@H](C)O)C(C)C)C(C)C)[C@H](C)CC)[C@H](C)OC(=O)[C@H](C(C)C)NC1=O [KAHALALIDE F] and print it.
100

Give inhibition at 30 µM for the following compound: O=C1C2CC=CCC2C(=O)N1SC(Cl)(Cl)Cl (stereo unspecified)
99.5

Please report the measured inhibition at 30 µM for `C/C=C1\NC(=O)[C@H](Cc2ccccc2)NC(=O)[C@@H](C(C)C)NC(=O)[C@@H]([C@@H](C)CC)NC(=O)[C@H](NC(=O)[C@H](NC(=O)[C@H](CCCNCc2cccs2)NC(=O)[C@H]2CCCN2C(=O)[C@H](NC(=O)[C@@H](NC(=O)[C@@H](NC(=O)[C@H](NC(=O)CCCC(C)C)C(C)C)[C@@H](C)O)C(C)C)C(C)C)[C@@H](C)CC)[C@@H](C)OC(=O)[C@H](C(C)C)NC1=O`
98.8
